Where do the numbers come from? From patent US20260069689A1.

Target: SARS-COV-2 RBD extracellular domain expressed with a C-terminal mouse IgG2a Fc (SARS-CoV-2)
Assay: Biacore SPR, mAb captured on anti-hFc, 37 C
property-measured: kon (M⁻¹ s⁻¹)
The response must be a number in M⁻¹ s⁻¹ with no trailing unit.

binder | property-measured | numeric-result
mAb15170 (antibody, V domains shown) VH: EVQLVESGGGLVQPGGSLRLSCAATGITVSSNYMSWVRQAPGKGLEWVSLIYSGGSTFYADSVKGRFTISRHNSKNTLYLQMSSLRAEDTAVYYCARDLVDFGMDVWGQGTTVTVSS VL: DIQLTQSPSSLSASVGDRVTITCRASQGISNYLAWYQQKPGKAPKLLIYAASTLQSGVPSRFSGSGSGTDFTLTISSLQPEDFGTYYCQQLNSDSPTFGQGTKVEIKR | kon | 260000

Data request: Which kon value is on record for mAb15150 (antibody, V domains shown) VH: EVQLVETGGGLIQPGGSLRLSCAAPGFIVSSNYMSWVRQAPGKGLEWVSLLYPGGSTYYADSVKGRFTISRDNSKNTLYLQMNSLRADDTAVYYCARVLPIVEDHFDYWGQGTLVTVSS VL: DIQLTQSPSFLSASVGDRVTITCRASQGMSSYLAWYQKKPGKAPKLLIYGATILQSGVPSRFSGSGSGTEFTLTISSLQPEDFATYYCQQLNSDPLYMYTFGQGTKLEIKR ?
Data returned: 946000
